Reported GI50 values for the following molecules.
Tested on: U251
Assay: NCI60 five-dose screen, CNS Cancer
Assay type: cell-based
Conditions: Homo sapiens, U-251; U251, CNS Cancer; five-dose screen; read-out: GI50
Enter your answer as a number in µM; do not include the unit.

Field: example entries. Status: answers known.
Task: Endpoint output: GI50 of CC[C@]12C=CCN3CC[C@@]4(c5ccc(OC)cc5N(C)[C@H]4[C@@](O)(C(=O)OC)[C@@H]1OC(=O)CCC(=O)N1CCN(Cc4ccc(C(F)(F)F)cc4)CC1)[C@@H]32 . Value?
Output: 11.2

Task: Endpoint output: GI50 of CC[C@]12C=CCN3CC[C@@]4(c5ccc(OC)cc5N(C)[C@H]4[C@@](O)(C(=O)OC)[C@@H]1OC(=O)CCCN1CCN(Cc4ccc(C(F)(F)F)cc4)CC1)[C@@H]32 . Value?
Output: 1.66

Could you now look at the following molecule, please?
Task: Endpoint output: GI50 of CC[C@]12C=CCN3CC[C@@]4(c5ccc(OC)cc5N(C)[C@H]4[C@@](O)(C(=O)OC)[C@@H]1OC(=O)CCCN1CCN(c4ccc(C(F)(F)F)cc4)CC1)[C@@H]32 . Value?
Output: 2.24

---

Test system: M14
Assay: NCI60 five-dose screen, Melanoma
Assay type: cell-based
Conditions: Homo sapiens; M14, Melanoma; five-dose screen; read-out: GI50
Reported GI50 values for the following compounds.
Enter your answer as a number in µM; do not include the unit.

Task: Endpoint output: GI50 of CC[C@]12C=CCN3CC[C@@]4(c5ccc(OC)cc5N(C)[C@H]4[C@@](O)(C(=O)OC)[C@@H]1OC(=O)CCC(=O)N1CCN(c4ccc(C(F)(F)F)cc4)CC1)[C@@H]32 . Value?
Output: 2.4

Task: Endpoint output: GI50 of CCC12C=CCN3CCC4(c5cc(NC(=O)CN6CCN(C(c7ccc(F)cc7)c7ccc(F)cc7)CC6)c(OC)cc5N(C)C4C(O)(C(=O)OC)C1OC(C)=O)C32 (centres unmarked) . Value?
Output: 4.07

Task: Endpoint output: GI50 of CC[C@]12C=CCN3CC[C@@]4(c5ccc(OC)cc5N(C)[C@H]4[C@@](O)(C(=O)OC)[C@@H]1OC(=O)CCCN1CCN(c4ccc(C(F)(F)F)cc4)CC1)[C@@H]32 . Value?
Output: 1.86

---

Tested on: NCI-H460
Assay: NCI60 one-dose screen (10 μM), Non-small Cell Lung Cancer
Assay type: cell-based
Settings: Homo sapiens, NCI-H460, read-out: Growth percent rate
Reported activity at 10 µM values for the following compounds.

Task: Endpoint output: activity at 10 µM of CC[C@]12C=CCN3CC[C@@]4(c5ccc(OC)cc5N(C)[C@H]4[C@@](O)(C(=O)OC)[C@@H]1OC(=O)CCCN1CCN(C(c4ccc(F)cc4)c4ccc(F)cc4)CC1)[C@@H]32 . Value?
Output: -70.4%

Task: Endpoint output: activity at 10 µM of CCC12C=CCN3CCC4(c5cc(NC(=O)CN6CCN(Cc7ccc(F)cc7)CC6)c(OC)cc5N(C)C4C(O)(C(=O)OC)C1OC(C)=O)C32 (stereo not drawn) . Value?
Output: 129%

Task: Endpoint output: activity at 10 µM of CCC12C=CCN3CCC4(c5ccc(OC)cc5N(C)C4C(O)(C(=O)OC)C1O)C32 (stereo not drawn) . Value?
Output: 106%

Task: Endpoint output: activity at 10 µM of CCC12C=CCN3CCC4(c5cc(NC(=O)CN6CCN(Cc7ccc(C(F)(F)F)cc7)CC6)c(OC)cc5N(C)C4C(O)(C(=O)OC)C1OC(C)=O)C32 (stereo not drawn) . Value?
Output: 62.1%

Task: Endpoint output: activity at 10 µM of CCC12C=CCN3CC[C@@]4(c5ccc(OC)cc5N(C)[C@H]4[C@@](O)(C(=O)OC)[C@@H]1OC(C)=O)[C@@H]32 (stereo partly drawn) . Value?
Output: 120%

Task: Endpoint output: activity at 10 µM of CC[C@]12C=CCN3CC[C@@]4(c5ccc(OC)cc5N(C)[C@H]4[C@@](O)(C(=O)OC)[C@@H]1OC(=O)CCC(=O)N1CCN(C(=O)c4ccco4)CC1)[C@@H]32 . Value?
Output: 107%

---

Tested on: EKVX
Experiment: NCI60 one-dose screen (10 μM), Non-small Cell Lung Cancer
Format: cell-based
Settings: Homo sapiens, read-out: Growth percent rate
experimentalReadout: activity at 10 µM (%)
Enter your answer as a number in %; do not include the unit.

Field: example entries. Status: answers known.
Task: Endpoint output: activity at 10 µM of CC[C@]12C=CCN3CC[C@@]4(c5ccc(OC)cc5N(C)[C@H]4[C@@](O)(C(=O)OC)[C@@H]1OC(=O)CCC(=O)N1CCN(C(=O)c4ccco4)CC1)[C@@H]32 . Value?
Output: 99.4

Task: Endpoint output: activity at 10 µM of CCC12C=CCN3CCC4(c5cc(NC(=O)CN6CCN(Cc7ccc(C(F)(F)F)cc7)CC6)c(OC)cc5N(C)C4C(O)(C(=O)OC)C1OC(C)=O)C32 (stereo not drawn) . Value?
Output: 61.6

Task: Endpoint output: activity at 10 µM of CCC12C=CCN3CCC4(c5cc(NC(=O)CN6CCN(Cc7ccc(F)cc7)CC6)c(OC)cc5N(C)C4C(O)(C(=O)OC)C1OC(C)=O)C32 (stereo not drawn) . Value?
Output: 88.8

Task: Endpoint output: activity at 10 µM of CC[C@]12C=CCN3CC[C@@]4(c5ccc(OC)cc5N(C)[C@H]4[C@@](O)(C(=O)OC)[C@@H]1OC(=O)CCCN1CCN(C(c4ccc(F)cc4)c4ccc(F)cc4)CC1)[C@@H]32 . Value?
Output: -89.8

Task: Endpoint output: activity at 10 µM of CCC12C=CCN3CC[C@@]4(c5ccc(OC)cc5N(C)[C@H]4[C@@](O)(C(=O)OC)[C@@H]1OC(C)=O)[C@@H]32 (stereo partly drawn) . Value?
Output: 92

Could you now look at the following compound, please?
Task: Endpoint output: activity at 10 µM of CCC12C=CCN3CCC4(c5ccc(OC)cc5N(C)C4C(O)(C(=O)OC)C1O)C32 (stereo not drawn) . Value?
Output: 98.9

---

Assay: CellTiter-Glo Luminescent Cell Viability Assay on non-tumor CHO cells
Format: cell-based, Chinese hamster
Settings: Chinese hamster; CHO cells, 48 h, 10^−5 M; mean ± SD, n = 9
experimentalReadout: viability at 48 h (%)
Enter your answer as a number in %; do not include the unit.

Task: Endpoint output: viability at 48 h of CC[C@]12C=CCN3CC[C@@]4(c5ccc(OC)cc5N(C)[C@H]4[C@@](O)(C(=O)OC)[C@@H]1OC(=O)CCCN1CCN(C(c4ccc(F)cc4)c4ccc(F)cc4)CC1)[C@@H]32 . Value?
Output: 33.5

---

Test system: SK-OV-3
Experiment: NCI60 one-dose screen (10 μM), Ovarian Cancer
Format: cell-based
Settings: Homo sapiens, SK-OV-3, read-out: Growth percent rate
experimentalReadout: activity at 10 µM (%)
Enter your answer as a number in %; do not include the unit.

Field: example entries. Status: answers known.
Task: Endpoint output: activity at 10 µM of CCC12C=CCN3CCC4(c5cc(NC(=O)CN6CCN(Cc7ccc(C(F)(F)F)cc7)CC6)c(OC)cc5N(C)C4C(O)(C(=O)OC)C1OC(C)=O)C32 (centres unmarked) [Compound 18] . Value?
Output: 87

Task: Endpoint output: activity at 10 µM of CC[C@]12C=CCN3CC[C@@]4(c5ccc(OC)cc5N(C)[C@H]4[C@@](O)(C(=O)OC)[C@@H]1OC(=O)CCC(=O)N1CCN(C(=O)c4ccco4)CC1)[C@@H]32 [Compound 32] . Value?
Output: 111

Task: Endpoint output: activity at 10 µM of CCC12C=CCN3CCC4(c5cc(NC(=O)CN6CCN(Cc7ccc(F)cc7)CC6)c(OC)cc5N(C)C4C(O)(C(=O)OC)C1OC(C)=O)C32 (centres unmarked) [Compound 19] . Value?
Output: 108

***
Task: Endpoint output: activity at 10 µM of CC[C@]12C=CCN3CC[C@@]4(c5ccc(OC)cc5N(C)[C@H]4[C@@](O)(C(=O)OC)[C@@H]1OC(=O)CCCN1CCN(C(c4ccc(F)cc4)c4ccc(F)cc4)CC1)[C@@H]32 [Compound 25] . Value?
Output: -72.5

Task: Endpoint output: activity at 10 µM of CCC12C=CCN3CC[C@@]4(c5ccc(OC)cc5N(C)[C@H]4[C@@](O)(C(=O)OC)[C@@H]1OC(C)=O)[C@@H]32 (some centres unmarked) [Compound 1, vindoline] . Value?
Output: 102

---

Tested on: SF-268
Experiment: NCI60 one-dose screen (10 μM), CNS Cancer
Type: cell-based
Conditions: Homo sapiens, SF-268, read-out: Growth percent rate
experimentalReadout: activity at 10 µM (%)
Enter your answer as a number in %; do not include the unit.

Field: example entries. Status: answers known.
Task: Endpoint output: activity at 10 µM of CCC12C=CCN3CCC4(c5cc(NC(=O)CN6CCN(Cc7ccc(F)cc7)CC6)c(OC)cc5N(C)C4C(O)(C(=O)OC)C1OC(C)=O)C32 (stereo not drawn) [Compound 19] . Value?
Output: 102

Task: Endpoint output: activity at 10 µM of CC[C@]12C=CCN3CC[C@@]4(c5ccc(OC)cc5N(C)[C@H]4[C@@](O)(C(=O)OC)[C@@H]1OC(=O)CCC(=O)N1CCN(C(=O)c4ccco4)CC1)[C@@H]32 [Compound 32] . Value?
Output: 92.2

Task: Endpoint output: activity at 10 µM of CCC12C=CCN3CC[C@@]4(c5ccc(OC)cc5N(C)[C@H]4[C@@](O)(C(=O)OC)[C@@H]1OC(C)=O)[C@@H]32 (stereo partly drawn) [Compound 1, vindoline] . Value?
Output: 122

Task: Endpoint output: activity at 10 µM of CC[C@]12C=CCN3CC[C@@]4(c5ccc(OC)cc5N(C)[C@H]4[C@@](O)(C(=O)OC)[C@@H]1OC(=O)CCCN1CCN(C(c4ccc(F)cc4)c4ccc(F)cc4)CC1)[C@@H]32 [Compound 25] . Value?
Output: -81.9

Task: Endpoint output: activity at 10 µM of CCC12C=CCN3CCC4(c5ccc(OC)cc5N(C)C4C(O)(C(=O)OC)C1O)C32 (stereo not drawn) [Compound 13, 17-desacetylvindoline] . Value?
Output: 107

Could you now look at the following molecule, please?
Task: Endpoint output: activity at 10 µM of CCC12C=CCN3CCC4(c5cc(NC(=O)CN6CCN(Cc7ccc(C(F)(F)F)cc7)CC6)c(OC)cc5N(C)C4C(O)(C(=O)OC)C1OC(C)=O)C32 (stereo not drawn) [Compound 18] . Value?
Output: 65.2
